Test system: Bacillus mycoides
procedure text: microbe, parasite or virus in culture
Type: cell-based
condition set: read-out: Inhibition zone
recorded metric: zone of inhibition at 5000 µg/mL (mm)
Give the number; mm is assumed, so skip it.

Some solved cases for reference:
INSERT INTO measurements (record_smiles, measured_value) VALUES
  ('Cc1ccc(S(=O)(=O)NC(=O)Nc2cc(C(F)(F)F)cc(C(F)(F)F)c2)cc1', 33),
  ('Cc1ccc(S(=O)(=O)NC(=O)Nc2ccc(OC(F)(F)F)cc2)cc1', 27),
  ('Cc1ccc(S(=O)(=O)NC(=O)Nc2ccc(C(F)(F)F)cc2)cc1', 28);

Request: For the compound "Cc1ccc(S(=O)(=O)NC(=O)Nc2ccccc2C(F)(F)F)cc1" , give its measured zone of inhibition at 5000 µg/mL value.
Response: 24
